- Tested on: CAKI-1 renal
- Procedure summary: NCI tumour cell line growth inhibition, 48 h
Measured TGI accompanies every entry in the list below.

Examples from the recorded data:
COC1=CC(=O)c2c(ccc3ncnc(N)c23)C1=O    3.27 µM
O=C1c2scc(-c3ccccc3)c2-n2cccc21    31.9 µM
O=[N+]([O-])c1ccc(C(Br)c2ccc([N+](=O)[O-])cc2)cc1    4.91 µM

What measured TGI goes with C=CCSc1nc2c(N)ncnc2n1C1OC(CO)C(O)C1O (stereo not given) ?
> 100 µM

Cool, now N#C/C(=C\c1cn(Cc2ccccc2)c2ccccc12)C(=O)Nc1ncc(Cc2ccccc2Cl)s1
3.75 µM

Then what about the compound CN(C)c1nc(=Nc2ccc3c(c2)OCO3)ss1 ?
> 100 µM

Same question for Cc1cccc2c1CC(C1OC(=O)c3ccccc31)C2=O (stereo not given) please.
> 100 µM

* * *

- System: U251 CNS
- Procedure summary: NCI tumour cell line growth inhibition, 48 h
Quantity: TGI

The cases that follow already have their TGI on record.
O=c1[nH][nH]c(=O)n1Cc1cccc(Cn2c(=O)[nH][nH]c2=O)c1    > 100 µM
C[C@]1(O)CC[C@H]2[C@@H]3CCc4cc(O)ccc4[C@H]3CC[C@@]21C    > 100 µM
COc1ccc(-c2csc(-n3c(-c4ccccc4)nc4c(Br)cc(Br)cc4c3=O)n2)cc1    > 100 µM

Can you share its TGI? I mean this compound: O=C1C=CC(=O)c2c(O)ccc(O)c21
14.8 µM

For COc1nc(NC2OC(COC(C)=O)C(OC(C)=O)C(OC(C)=O)C2OC(C)=O)c2c(OC(C)=O)c(C)c(=O)oc2n1 (centres undefined) then?
> 100 µM

Now this one: CCOC(=O)NC(=O)c1cn(CCCOC(=O)CCCCCCCCC(=O)OCCCn2cc(C(=O)NC(=O)OCC)c(=O)n(C)c2=O)c(=O)n(C)c1=O
> 100 µM

Field entry: COc1ccc(C(c2ccc(C(C)C)cc(OC)c2=O)c2ccc(C(C)C)cc(OC)c2=O)cc1
26.6 µM

Record: CCCSc1ccc2nc(NC(=O)OC)[nH]c2c1
> 100 µM

What would you report for O=C1C(Cl)=C(Nc2cccc(O)c2)C(=O)N1CCc1ccccc1 ?
42.1 µM

* * *

- Tested on: NCI-H522 lung
- Procedure summary: NCI tumour cell line growth inhibition, 48 h
Quantity: TGI (µM)
Write the answer as a number in µM, unit excluded.

Cc1c(NC(=O)/C(=N/NC(=S)N=N)C2C(=O)CC(C)(C)CC2=O)c(O)c2ccccc2c1O    8.39
O=C1C=CC(=O)c2c(O)c(N3CCN(c4ccccn4)CC3)c(Cl)c(O)c21    3.5
C=C1c2c(C)nn(-c3ccc(OC)cc3)c2N(C)C23C[C@@H]1C1(C)c4c(C)nn(-c5ccc(OC)cc5)c4N(C)C(C)(C[C@H]12)C3 (stereo partly drawn)    11

Turning now to a further molecule:
Notebook: pull reported TGI for NCI-H522 lung, entry COc1cc(C(=O)c2c(-c3ccccc3)oc3c(OC)cccc23)cc(OC)c1O
5.18

* * *

- System: IGROV1 ovarian
- Procedure summary: NCI tumour cell line growth inhibition, 48 h
Quantity: TGI

c1ccc2c(c1)c1ccccc1c1n[se]nc21    > 100 µM
COc1ccc2c(c1)C1C(CO2)C(c2ccccc2)=NN1c1ccccc1 (centres undefined)    > 100 µM
CC(C)=CC(=O)c1[nH]c2ccccc2c1CC(=O)NCCc1cn(C(c2ccccc2)(c2ccccc2)c2ccccc2)cn1    > 45 µM

I'd like to know its TGI. The compound in question is CCOC(=O)C1(Cc2ccc3c(c2)CCC3)Cc2cc3c(cc2C1=O)CCC3 (centres undefined)
> 100 µM

Then what about the compound O=C1C=CC(=O)c2c(O)c(N3CCN(c4ccccn4)CC3)c(Cl)c(O)c21 ?
3.22 µM

Subsequent entry: Fc1c(F)c(F)c2c(c1F)CSc1nc3ccccc3n1-2
> 100 µM

Further, for CCC(O)CC1OC2(CCC1C)CC1OC(=O)/C=C\C(C)(O)C(O)C(C)C(O)C(OC3CC(OC)C(O)C(C)O3)C(O)C(C)(O)CCC/C=C/C3CC(C)COC3(O)CC(O2)C1C (centres undefined) ?
47.1 µM

Now the compound Cc1cc(-n2c(/C=C/c3ccc(Cl)cc3)nc3cc(Cl)ccc3c2=O)on1
> 50 µM

Same lookup for O=[N+]([O-])c1ccc(C(Br)c2ccc([N+](=O)[O-])cc2)cc1 , please.
3.17 µM

* * *

- Tested on: SNB-75 CNS
- Procedure summary: NCI tumour cell line growth inhibition, 48 h
We use 40 µM as the dividing line for TGI: on or above the line is Criterion met, below is Criterion not met.

As a guide, the following entries are already answered.
CN(/N=C(\C(=O)O)c1ccccc1)C1=NCCCCN1    Criterion met
CCNCCCn1c2c(c3ccc(F)cc3c1=O)C(=O)c1cc(OC)cnc1-2    Criterion not met
Nc1c(Br)cc2c(c1Br)Cc1cc(Br)ccc1-2    Criterion met
O=C(CCC(C(=O)OCc1ccccc1)C(=O)OCc1ccccc1)Nc1ccc(OCc2ccccc2)cc1    Criterion met
CN(C)c1nc(=Nc2ccc3c(c2)OCO3)ss1    Criterion met

Item Brc1ccc(SCN(CSc2ccc(Br)cc2)Cc2ccccc2)cc1 with TGI of 40 µM or above?
Criterion not met

// repeat for Cc1c([C@H](C(Cl)Cl)[C@H](O)[C@H]2C[C@H](C)C(=O)O2)ccc2c1C(=O)[C@H]1[C@H]2C[C@@H](Br)[C@@]23O[C@@H](CO[C@H]2O)CC13C (stereo not given in full) and report
Criterion met

Please answer likewise for CCOC(=O)c1nc2cc(C(F)(F)F)ccc2nc1Oc1ccc(OC)cc1
Criterion met

Proceed to COc1ccc(Nc2nn3c(=O)c4c(C)c(C)sc4nc3s2)cc1
Criterion met

Same read-out for O=[N+]([O-])c1ccc2[nH]c3c(-c4ccccc4)nccc3c2c1 ?
Criterion not met

* * *

- Test system: HOP-62 NSCLC
- Procedure summary: NCI tumour cell line growth inhibition, 48 h
Quantity: GI50

Could you share what GI50 was measured for CN1CCCC1c1cccnc1.O=C(O)c1ccccc1O.O=C([O-])c1ccccc1[OH2+].O=C([O-])c1ccccc1[OH2+].O=C([O-])c1ccccc1[OH2+].[Cu+2] (centres undefined) , tested on HOP-62 NSCLC?
> 100 µM

* * *

- Tested on: MOLT-4 leukemia
- Procedure summary: NCI tumour cell line growth inhibition, 48 h
Would you please tag the item Satisfied when its TGI is 6 µM or above, and Not satisfied when it is below?

Answered examples (6):
COC1=CC(=O)c2c(ccc3ncnc(N)c23)C1=O    Not satisfied
COc1ccc(Nc2nn3c(=O)c4c(C)c(C)sc4nc3s2)cc1    Satisfied
Cc1c(NC(=O)/C(=N/NC(=S)N=N)C2C(=O)CC(C)(C)CC2=O)c(O)c2ccccc2c1O    Satisfied
CC(C)=CCCC(C)[C@H]1CC(O)C2(C)C3=CCC4C(C)(C)[C@@H](O)CC[C@]4(C)C3=CC[C@]12C (stereo not given in full)    Satisfied
COc1ccc2c(c1)C1C(CO2)C(c2ccccc2)=NN1c1ccccc1 (stereo not given)    Satisfied
CCCc1nc(N)nc(C(=O)Nc2cccc(C(F)(F)F)c2)c1CC    Satisfied

Answer whether TGI of COC(=O)CCC1=NOC(CC2CC(CCC(=O)OC)=NO2)C1 (stereo not given) is greater than or equal to 6 µM.
Satisfied

Would you kindly repeat that for COc1ccc(/C=C/C(=O)C(C)(C)C)cc1OC ?
Satisfied

Try this molecule too: O=C(C=P(c1ccccc1)(c1ccccc1)c1ccccc1)c1ccc(-c2cccc([N+](=O)[O-])c2)cc1
Not satisfied

Another molecule to look at: O=C1C(Cl)=C(Nc2cccc(O)c2)C(=O)N1CCc1ccccc1
Satisfied

* * *

- System: CAKI-1 renal
- Procedure summary: NCI tumour cell line growth inhibition, 48 h; in the data active means GI50 below about 0.43 µM; inactive means the rest
I would appreciate it if you answered using one of these outcomes: t = active, f = inactive

Field: example entries. Status: answers known.
COc1cccc2c1C(=O)c1c(O)c3c(c(O)c1C2=O)CC(O)(/C(C)=N/NC(=O)CCCCC(=O)N/N=C(\C)C1(O)Cc2c(O)c4c(c(O)c2C(OC2CC(N)C(O)C(C)O2)C1)C(=O)c1c(OC)cccc1C4=O)CC3OC1CC(N)C(O)C(C)O1 (stereo unspecified)    t
COc1cc(/C=C/C(=O)Nc2ccc3c(c2)/C(=C\c2cccn2C)C(=O)N3)cc(OC)c1OC    f

Identify the outcome logged in this assay for the molecule shown: CNC(=O)C(CCc1ccccc1)NC(=O)C(CC(=O)NO)CC(C)C (stereo unspecified)
f

Request: C=C1CC2(OC1=O)C(=O)N(C)c1ccc(I)cc12 (stereo unspecified)
f

Proceed to CCOC(=O)/C=C/C1=C(c2ccsc2)c2ccc(OC)cc2CC1
t

Note, next up: Oc1ccc(Nc2nc3ccccc3c3occc23)cc1
f
